Tested on: SK-MEL-28 melanoma
assayComment: NCI-60 one-dose screen, 48 h (100 = growth as untreated, 0 = no growth, -100 = all killed)
measurementContext: 10 µM unless noted
About 83,000 compounds went through this panel and 20% of them were active in at least one assay; those are over-represented in the sample as a whole.
Is growth at least 60%? Then Fulfilled. If not, Not fulfilled.

# compound, assignedLabel
rows = [
    ("O=C1C2=C(C(=O)c3c(O)cccc31)C(c1ccco1)c1sc(=O)[nH]c1S2 (stereo not given)", "Not fulfilled"),
    ("CC(=O)Oc1ccccc1C(=O)Nc1cc(C(C)C)ccc1C", "Not fulfilled"),
    ("COc1ccc(/C=N/NC(=O)c2[nH]c3ccc(Br)cc3c2-c2ccccc2)s1", "Fulfilled"),
    ("CN1CCN(Cc2ccc(NC(=O)c3cncc(C#Cc4cnc5[nH]ncc5c4)c3)cc2C(F)(F)F)CC1", "Not fulfilled"),
]

====

System: U251 CNS
assayComment: NCI-60 one-dose screen, 48 h (100 = growth as untreated, 0 = no growth, -100 = all killed)
measurementContext: 10 µM unless noted
The panel holds about 83,000 compounds, 20% with a hit somewhere; the sample as a whole holds those more often.
Class (required): determined from growth; valid ranges are low = under 30%, moderate = from 30% up to 70%, high = 70% and over

# compound, experimentalSystem, assignedLabel
measured = [
    ("Cc1nc2cnc(N)c(C#Cc3cncc(C(=O)Nc4ccc(Cl)c(C(F)(F)F)c4)c3)c2nc1C", "U251 CNS", "high"),
    ("CCOc1ccc([C@H]2C(C(=O)c3ccc(Cl)cc3)C3(N[C@@H]2c2ccccc2)C(=O)Nc2ccc(Br)cc23)cc1 (some centres undefined)", "U251 CNS", "low"),
    ("O=C(N/N=C/c1ccc([N+](=O)[O-])o1)c1[nH]c2ccc(Br)cc2c1-c1ccccc1", "U251 CNS", "low"),
    ("CCCC(=O)NC(c1cccc(N(C)C)c1)c1cc(C)c2cccnc2c1O (centres undefined)", "U251 CNS", "moderate"),
    ("N#Cc1ccc(C(=O)CSc2nc(Nc3ccc(S(N)(=O)=O)cc3)c3ccccc3n2)cc1", "U251 CNS", "high"),
    ("O=C(CCN1C(=O)/C(=C/c2ccccc2F)SC1=S)N1CCOCC1", "U251 CNS", "high"),
    ("CSCCC(C(=O)O)N1C(=O)/C(=C/c2ccc(O)c(O)c2)SC1=S (centres undefined)", "U251 CNS", "high"),
    ("CC(=O)Nc1cc(F)cc(-c2ccc3[nH]cc(-c4ccccc4)c3n2)c1", "U251 CNS", "low"),
    ("N/C(=N\\c1nc2c(Br)cccc2s1)C(Br)Br", "U251 CNS", "low"),
    ("CCOC(=O)c1c(Nc2ccccc2)nn2c(N)c(C#N)c(-c3ccc(Cl)cc3)nc12", "U251 CNS", "moderate"),
    ("CCN1CCN(/C(=N\\c2sc(-c3ccccc3)nc2-c2ccccc2)c2ccccc2)CC1", "U251 CNS", "moderate"),
    ("O=c1/c(=C\\c2ccc(-c3ccccc3)o2)sc2nc(-c3ccccc3)nn12", "U251 CNS", "high"),
    ("COc1cc(/C=C/C(=O)c2ccc(C)cc2)ccc1Oc1nc(NCCO)nc(N2CCOCC2)n1", "U251 CNS", "moderate"),
    ("COc1cc(OC)c(C2C(Cl)C(=O)N2Nc2ncnc3ccccc23)cc1OC (centres undefined)", "U251 CNS", "high"),
    ("CCC/C=C/C=C/C(=O)N[C@@H](Cc1cc(F)cc(F)c1)C(=O)N[C@@H]1C(=O)N2CCC[C@H]2C(=O)N2CCCC[C@H]2C(=O)N[C@@H](C)C(=O)N2C[C@H](C)C[C@H]2C(=O)O[C@H]1C", "U251 CNS", "low"),
    ("CCCC(=O)NC(c1cccnc1)c1cc(C)c2cccnc2c1O (centres undefined)", "U251 CNS", "moderate"),
    ("CN(C)CCCNc1c2ccc(Cl)cc2nc2c1oc1ccccc12", "U251 CNS", "low"),
    ("O=C(N/N=C/c1cccs1)c1[nH]c2ccc(Br)cc2c1-c1ccccc1", "U251 CNS", "low"),
]

====

Test system: ACHN renal
assayComment: NCI-60 one-dose screen, 48 h
measurementContext: 10 µM unless noted
This is part of a sample that, as a whole, favours compounds with a hit. Of some 83,000 tested, about 20% had one in any assay. The source made the active and inactive calls. How the source made its calls: active means growth percent below 10; inactive means the rest.
Outcome codes: y for active, n for inactive

# compound, assignedLabel
records = [
    ("c1ccc2c(NCCCN3CCOCC3)c3oc4ccccc4c3nc2c1", "y"),
    ("N#Cc1c(-c2ccc(Cl)cc2)nc(SCc2ccc([N+](=O)[O-])cc2)nc1N1CCNCC1", "y"),
    ("Fc1ccc(-c2nc(C(Cl)Cl)nc3cc(-c4ccccc4)nn23)cc1", "y"),
    ("Cc1nc(-c2cc3ccccc3oc2=O)ccc1C(=O)/C=C/c1ccc(Cl)c(Cl)c1", "n"),
    ("CC(C)(C)Nc1nc2c(OCCc3ccccc3)cccn2c1-c1ccccc1Cl", "y"),
    ("CCOC(=O)c1c(Nc2ccccc2)nn2c(-c3ccco3)c(C#N)cnc12", "n"),
    ("CS(=O)(=O)c1ccc(-c2nc3ccccn3c2-c2nc3ccc([N+](=O)[O-])cc3[nH]2)cc1", "n"),
    ("COc1cc(/C=C/C(=O)c2ccc(F)cc2)ccc1Oc1nc(NCCO)nc(N2CCOCC2)n1", "n"),
    ("Clc1ccc(Cc2nnc3sc(-c4cccnc4)nn23)cc1", "n"),
    ("CN(C)CCCNc1c2ccccc2nc2c1oc1ccc(Cl)cc12", "n"),
    ("Cc1ccc(-c2nc(C(Cl)Cl)nc3cc(-c4ccccc4)nn23)cc1", "y"),
    ("O=C1c2c(c3c4cccnc4[nH]c3c3ccc4ccccc4c23)C(=O)N1CCO", "n"),
    ("CCN1CCN(/C(=N\\c2sc(-c3ccccc3)nc2-c2ccccc2)c2ccccc2)CC1", "n"),
    ("COc1ccc2[nH]cc(-c3cc(N)n4nc(-c5c[nH]c6ccc(OC)cc56)cc4n3)c2c1", "y"),
    ("Nc1ncc(-c2ccc3ncnc(N4CCc5cc(F)c(Cl)cc54)c3c2)cc1CO", "y"),
    ("COc1ccc(N/N=C/c2c(-c3ccc(S(C)(=O)=O)cc3)nc3ccccn23)cc1", "n"),
    ("C#Cc1nc(C2=C(C)C(OC(=O)CCC(=O)O)CC2)cs1 (stereo unspecified)", "n"),
    ("O=C(CCN1C(=O)/C(=C/c2ccccc2F)SC1=S)N1CCOCC1", "n"),
    ("O=[N+]([O-])c1ccc(O)c2ncccc12", "n"),
    ("CSc1ccc2c(c1)N(C(=O)/C(C#N)=C/c1c[nH]c3ccccc13)c1ccccc1S2", "n"),
    ("COC(=O)C(C)NS(=O)(=O)/N=C1\\NC(=O)NC1=C(Cl)Cl (stereo unspecified)", "n"),
]

====

System: 786-0 renal
assayComment: NCI-60 one-dose screen, 48 h (100 = growth as untreated, 0 = no growth, -100 = all killed)
measurementContext: 10 µM unless noted
Compounds without any hit were thinned out: in the full panel of roughly 83,000, 20% have a hit. Active and inactive are the calls of the source. How the source made its calls: active means growth percent below 10; inactive means the rest.

# compound, experimentalSystem, growth
data = [
    ("CO/N=C1\\CCc2c(sc(NC(=O)c3cccc(C(F)(F)F)c3)c2C(N)=O)C1", "786-0 renal", "1.79% (active)"),
    ("O=C(CN1C(=O)/C(=C/c2ccccc2)SC1=S)N1CCOCC1", "786-0 renal", "92.3% (inactive)"),
    ("Cc1nc2cnc(N)c(C#Cc3cncc(C(=O)Nc4ccc(Cl)c(C(F)(F)F)c4)c3)c2nc1C", "786-0 renal", "64.3% (inactive)"),
    ("COc1ccc(-c2nc3ccc(-c4nnc(SCC(=O)Nc5ccc(C(C)=O)cc5)o4)cc3[nH]2)cc1", "786-0 renal", "105% (inactive)"),
    ("CN1CCc2c(sc3ncnc(N/N=C/c4ccc(Cl)c(Cl)c4)c23)C1", "786-0 renal", "-57.1% (active)"),
    ("CCCCCCNC(=O)Oc1ccc(/C(=C(/C)c2ccccc2)c2ccc(OCCN3CCCCCC3)cc2)cc1", "786-0 renal", "-0.48% (active)"),
    ("CN(C)CCCOc1c2ccc(Cl)cc2nc2c1oc1ccc(Cl)cc12", "786-0 renal", "-93.2% (active)"),
    ("O=C(NNc1nc2cc(F)ccc2n2c(CN3CC4(COC4)C3)ccc12)c1cnccn1", "786-0 renal", "-6.84% (active)"),
    ("Cn1cc(-c2cc(N)n3nc(-c4cn(C)c5ccc(Cl)cc45)cc3n2)c2cc(Cl)ccc21", "786-0 renal", "99.4% (inactive)"),
    ("CCOC(=O)c1sc(NCC(=O)Nc2cccc([N+](=O)[O-])c2)c(C(=O)OCC)c1C", "786-0 renal", "-12.4% (active)"),
    ("OC1CCN(CCCOc2c3ccccc3nc3c2oc2ccc(Cl)cc23)CC1", "786-0 renal", "11.7% (inactive)"),
    ("COc1ccc(/C=N/NC(=O)c2[nH]c3ccc(Br)cc3c2-c2ccccc2)s1", "786-0 renal", "11.4% (inactive)"),
    ("CCCC(=O)NC(c1cccc(N(C)C)c1)c1cc(C)c2cccnc2c1O (stereo not given)", "786-0 renal", "56.6% (inactive)"),
    ("COc1ccc(C(=O)c2cc(C(=O)/C=C/c3c(Cl)cccc3Cl)c3cc(C)ccn23)cc1", "786-0 renal", "100% (inactive)"),
    ("CC(C)NC(=O)c1cc(-c2ccc(NC(=O)Nc3ccc(N4CCOCC4)c(C(F)(F)F)c3)cc2)nc2cccnc12", "786-0 renal", "17% (inactive)"),
    ("O=C1Nc2ccccc2Oc2ccc(S(=O)(=O)CC3CO3)cc21 (stereo not given)", "786-0 renal", "98.1% (inactive)"),
    ("COC(=O)C1CCCN(S(=O)(=O)/N=C2\\NC(=O)NC2=C(Cl)Cl)C1 (stereo not given)", "786-0 renal", "102% (inactive)"),
    ("COc1cc(OC)c(C2C(Cl)C(=O)N2Nc2ncnc3ccccc23)cc1OC (stereo not given)", "786-0 renal", "98.6% (inactive)"),
    ("Fc1ccc(-c2cc3nc(C(Cl)Cl)nc(-c4ccc(Cl)cc4)n3n2)cc1", "786-0 renal", "47.4% (inactive)"),
    ("Clc1ccc2c(NCCCN3CCOCC3)c3oc4ccccc4c3nc2c1", "786-0 renal", "28.3% (inactive)"),
]

Where these numbers come from: PubChem BioAssay (NCI)
